# ASSAY PROCEDURE: Storage stability of crystals of 2′,3′-dideoxyinosine (increase of hypoxanthine after storage, HPLC)
# Format: physicochemical
# STUDY CONDITIONS: crystals stored at 60° C., at RH75% for 7 days; Table 4, degree of washing changed per sample
# Procedure: In order to examine the storage stability, the obtained crystals were stored at 60° C., at RH75% for 7 days. The concentration of the phosphate on the surface of the crystals and the amount of hypoxanthine were analyzed in the conditions shown in the following Table 2.
PROPERTY: Increase of hypoxanthine after storage (%/DDI)

OC[C@@H]1CC[C@H](n2cnc3c(O)ncnc32)O1 [Ex. 10, 2′,3′-dideoxyinosine] = 0.97

1 = OC[C@@H]1CC[C@H](n2cnc3c(O)ncnc32)O1 [Ex. 5, 2′,3′-dideoxyinosine]
2 = OC[C@@H]1CC[C@H](n2cnc3c(O)ncnc32)O1 [Ex. 8, 2′,3′-dideoxyinosine]
Looking only at measured Increase of hypoxanthine after storage (%/DDI), which entry is lower, 1 or 2 ? In your reply, give the label of the chosen option.
2
